Molecular target: UniProtKB P28907
Assay: human recombinant CD38 enzyme assay (hydrolysis of NAD+)
Conditions: human recombinant CD38, 0.4 nM enzyme, 62.5 μM NAD+; read-out: hCD38 BioChem IC50
Protocol: Compounds described herein were assayed for their ability to inhibit the hydrolysis of NAD+ by the protein CD38. […] Dose responses were measured using an assay to detect the hydrolysis of NAD+. […] Subsequent detection of remaining NAD+ was determined by first converting NAD+ to NADH using alcohol dehydrogenase, then using the resulting NADH to reduce resazurine to the fluorescent product resorufin. […] The plates were read for fluorescence (Excitation/Emission=540 nm/590 nm) using an EnVision plate reader. […]
Reported IC50 is given for each of the following compounds.
Answer with a number only, understood to be in nM.

Here are 5 compounds together with their reported answers.
chemicalStructure: O=C(N[C@H]1C[C@H](c2ccccc2F)C1)c1nccc(-n2ccnc2)n1
uom: nM
IC50: 46.4
//
chemicalStructure: CC(C)c1cc(C(=O)Nc2ccc(C(F)(F)F)nc2)nc(-n2ccnc2)n1
uom: nM
IC50: 47
//
chemicalStructure: O=C(Nc1ccc(C(F)F)nc1)c1nc(O)cc(-n2ccnc2)n1
uom: nM
IC50: 66.6
//
chemicalStructure: Cn1cncc1-c1cncc(C(=O)NC2CC3(C2)CC(F)(F)C3)n1
uom: nM
IC50: 80
//
chemicalStructure: C[C@H]1CC[C@H](NC(=O)c2cncc(-n3ccnc3)n2)CC1
uom: nM
IC50: 23

Given CO[C@H]1CC[C@H](NC(=O)c2cc(C3CC4(COC4)C3)nc(-c3cncn3C)n2)CC1 , state its recorded IC50.
22.1

What do you have for O=C(Nc1ccc(C(F)(F)F)nc1)c1ccnc(-n2ccnc2)n1 ?
4

# repeat for O=C(N[C@H]1C[C@H](c2ccc(C(F)(F)F)nc2)C1)c1nccc(-n2ccnc2)n1
199

And O=C(NC12CC(C1)C2)c1cccc(-n2ccnc2)n1 ?
1510

What about this compound? Cn1cncc1-c1ncc(F)c(C(=O)N[C@H]2CC[C@H](OC(F)F)CC2)n1
8.7

====

target: CYP2C8 (Homo sapiens, UniProt P10632); construct: Pooled human microsomes and selective CYP probe substrates were used; from tissue; host or cells: pooled human (hepatic) microsomes; test: time dependent inhibition of CYP450 in pooled human microsomes; assay type: in vitro ADME; settings: pre-incubation 30 min (NADPH)
Sequence (P10632 whole entry): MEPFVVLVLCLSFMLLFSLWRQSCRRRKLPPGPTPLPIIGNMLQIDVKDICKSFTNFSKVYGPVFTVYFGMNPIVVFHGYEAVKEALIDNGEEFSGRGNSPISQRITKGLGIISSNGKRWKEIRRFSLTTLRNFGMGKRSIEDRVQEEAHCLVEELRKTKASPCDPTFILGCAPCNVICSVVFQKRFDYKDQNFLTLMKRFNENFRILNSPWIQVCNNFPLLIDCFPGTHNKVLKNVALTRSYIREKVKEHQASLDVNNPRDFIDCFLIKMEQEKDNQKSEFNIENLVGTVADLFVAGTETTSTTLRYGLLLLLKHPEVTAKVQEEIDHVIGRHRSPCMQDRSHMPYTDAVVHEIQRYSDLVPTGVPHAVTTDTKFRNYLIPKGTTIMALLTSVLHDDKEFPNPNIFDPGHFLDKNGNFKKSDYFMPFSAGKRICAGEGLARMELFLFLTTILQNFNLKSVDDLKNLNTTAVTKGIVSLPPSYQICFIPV
measuredMetric: IC50

Look up IC50: CO[C@H]1CC[C@H](NC(=O)c2nccc(-c3cncn3C)n2)CC1
> 30 µM

====

molecular target: human CD38 (Homo sapiens, UniProt P28907); test: human recombinant CD38 enzyme assay (hydrolysis of NAD+); conditions: human recombinant CD38, 0.4 nM enzyme, 62.5 μM NAD+; read-out: hCD38 BioChem IC50
Sequence (P28907 whole entry): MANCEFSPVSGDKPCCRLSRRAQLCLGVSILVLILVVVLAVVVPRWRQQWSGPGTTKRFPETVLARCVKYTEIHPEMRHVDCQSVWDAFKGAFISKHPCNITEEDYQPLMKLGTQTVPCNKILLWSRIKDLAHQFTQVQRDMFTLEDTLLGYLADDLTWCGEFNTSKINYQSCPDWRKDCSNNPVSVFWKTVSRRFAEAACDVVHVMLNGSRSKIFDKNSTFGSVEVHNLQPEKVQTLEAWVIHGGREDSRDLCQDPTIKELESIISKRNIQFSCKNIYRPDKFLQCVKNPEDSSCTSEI
measuredMetric: IC50 (µM)
Number only, in µM; omit the unit.

Known IC50 results, listed for orientation:
molecule: Cn1cncc1-c1cccc(C(=O)N[C@H]2CC[C@H](C(F)F)CC2)n1 [Compound 77]
IC50 / µM: 0.131
--
molecule: O=C(Nc1ccc(C(F)(F)F)nc1)c1cncc(-n2ccnc2)n1 [Compound 55]
IC50 / µM: 0.005
--
molecule: Cc1cc(NC(=O)c2cccc(-n3ccnc3)n2)ccn1 [Compound 21]
IC50 / µM: 0.003

Requested read-out: IC50. Entry: Cc1cc(C(=O)Nc2cccnc2)nc(-c2cncs2)c1 [Compound 35]
0.21

Same for CO[C@H]1CC[C@H](NC(=O)c2nc(-c3cncn3C)cc(C(F)F)n2)CC1 [Compound 350]
0.107

Item: Cn1cncc1-c1ccnc(C(=O)N[C@H]2C[C@](O)(c3ccccc3)C2)n1 [Compound 310]
0.354

Item: CO[C@H]1C[C@H](NC(=O)c2nccc(-c3cncn3C)n2)C1 [Compound 297]
0.414

Could you do the same for COCCO[C@H]1CC[C@H](NC(=O)c2ccc(F)c(-n3ccnc3)n2)CC1 [Compound 54] , please?
0.189
